All values here come from patent US9976134B2.

- ASSAY_OVERVIEW: Stability assay in 25% TIDE 2X detergent without DTPA (residual Abz-AGLA-Nba protease activity)
- Type: physicochemical
- TEST_SETTINGS: 180 min at 50°C; variant residual AGLA activity divided by wild-type residual activity
MEASURED_ENDPOINT: PI (relative stability), 25% TIDE 2X without DTPA

{"MOLECULE": "S065D: single-substitution thermolysin variant (SEQ ID NO:3 numbering) (protein, listed as Geobacillus caldoproteolyticus) ITGTSTVGVGRGVLGDQKNINTTYSTYYYLQDNTRGNGIFTYDAKYRTTLPGSLWADADNQFFADYDAPAVDAHYYAGVTYDYYKNVHNRLSYDGNNAAIRSSVHYSQGYNNAFWNGSQMVYGDGDGQTFIPLSGGIDVVAHELTHAVTDYTAGLIYQNESGAINEAISDIFGTLVEFYANKNPDWEIGEDVYTPGISGDSLRSMSDPAKYGDPDHYSKRYTGTQDNGGVHINSGIINKAAYLISQGGTHYGVSVVGIGRDKLGKIFYRALTQYLTPTSNFSQLRAAAVQSATDLYGSTSQEVASVKQAFDAVGVK", "MEASURED": 1.20}
{"MOLECULE": "Q128M: single-substitution thermolysin variant (SEQ ID NO:3 numbering) (protein, listed as Geobacillus caldoproteolyticus) ITGTSTVGVGRGVLGDQKNINTTYSTYYYLQDNTRGNGIFTYDAKYRTTLPGSLWADADNQFFASYDAPAVDAHYYAGVTYDYYKNVHNRLSYDGNNAAIRSSVHYSQGYNNAFWNGSQMVYGDGDGMTFIPLSGGIDVVAHELTHAVTDYTAGLIYQNESGAINEAISDIFGTLVEFYANKNPDWEIGEDVYTPGISGDSLRSMSDPAKYGDPDHYSKRYTGTQDNGGVHINSGIINKAAYLISQGGTHYGVSVVGIGRDKLGKIFYRALTQYLTPTSNFSQLRAAAVQSATDLYGSTSQEVASVKQAFDAVGVK", "MEASURED": 1.09}
{"MOLECULE": "A058E: single-substitution thermolysin variant (SEQ ID NO:3 numbering) (protein, listed as Geobacillus caldoproteolyticus) ITGTSTVGVGRGVLGDQKNINTTYSTYYYLQDNTRGNGIFTYDAKYRTTLPGSLWADEDNQFFASYDAPAVDAHYYAGVTYDYYKNVHNRLSYDGNNAAIRSSVHYSQGYNNAFWNGSQMVYGDGDGQTFIPLSGGIDVVAHELTHAVTDYTAGLIYQNESGAINEAISDIFGTLVEFYANKNPDWEIGEDVYTPGISGDSLRSMSDPAKYGDPDHYSKRYTGTQDNGGVHINSGIINKAAYLISQGGTHYGVSVVGIGRDKLGKIFYRALTQYLTPTSNFSQLRAAAVQSATDLYGSTSQEVASVKQAFDAVGVK", "MEASURED": 1.24}
{"MOLECULE": "A058C: single-substitution thermolysin variant (SEQ ID NO:3 numbering) (protein, listed as Geobacillus caldoproteolyticus) ITGTSTVGVGRGVLGDQKNINTTYSTYYYLQDNTRGNGIFTYDAKYRTTLPGSLWADCDNQFFASYDAPAVDAHYYAGVTYDYYKNVHNRLSYDGNNAAIRSSVHYSQGYNNAFWNGSQMVYGDGDGQTFIPLSGGIDVVAHELTHAVTDYTAGLIYQNESGAINEAISDIFGTLVEFYANKNPDWEIGEDVYTPGISGDSLRSMSDPAKYGDPDHYSKRYTGTQDNGGVHINSGIINKAAYLISQGGTHYGVSVVGIGRDKLGKIFYRALTQYLTPTSNFSQLRAAAVQSATDLYGSTSQEVASVKQAFDAVGVK", "MEASURED": 1.01}
